Recorded values, source patent US4419358A.

- Experiment Description: Water solubility of salts of MJ 13156 (Table 1, Method A or B)
- Assay type: physicochemical
- Test Parameters: Method B: salts prepared in situ from 140 mg MJ 13156, second moleequivalent of acid added, overnight; room temperature (about 25° C.)
Property Measured: Solubility (µg/mL)

Use these answered entries as a reference point.
CCCOc1nc(N)c2ncn(C3CCCCC3)c2n1 [sulfuric]; 800
CCCOc1nc(N)c2ncn(C3CCCCC3)c2n1 [phosphoric]; 1300

a = CCCOc1nc(N)c2ncn(C3CCCCC3)c2n1 [hydrobromic]
b = CCCOc1nc(N)c2ncn(C3CCCCC3)c2n1 [nitric]
Lower Solubility: a or b ? Pick one; state its label.
a
(a: 1600 µg/mL, b: 2400 µg/mL)
